From: paper PMC8725448

test: Pharmacokinetic analysis in mouse plasma and brain after i.p. injection; assay type: in vivo; settings: ip; brain; 10 mg/kg; mouse
measure: AUC (ng·h/mL)
Express your answer in ng·h/mL, writing the number without its unit.

CCCCCc1cc(O)cc(O)c1C(=O)O
217

Alright, here's another compound for you.
Query block: Would you kindly share the measured AUC for `CCCCCc1cc(O)c(C/C=C(\C)CCC=C(C)C)c(O)c1C(=O)OC` ?
Result block: 367

====

test: Pharmacokinetic analysis in mouse plasma and brain after i.p. injection; assay type: in vivo; conditions: mouse, brain, ip, 10 mg/kg
measure: half-life

CCCCCc1cc(O)cc(O)c1C(=O)O [Olivetolic acid]
< 0.25 h

Now for a further compound.
Query block: Any idea what half-life was measured for CCCCCc1cc(O)c(C/C=C(\C)CCC=C(C)C)c(O)c1C(=O)OC [CBGA methyl ester] ?
Result block: 1.03 h

====

assay: Pharmacokinetic analysis in mouse plasma and brain after i.p. injection; assay type: in vivo; settings: ip; plasma; 10 mg/kg, i.p.; mouse; read-out: Cmax
Measured Cmax of individual entries
Please reply with the bare figure in ng/mL and do not write the unit itself.

CCCCCc1cc(O)c(C/C=C(\C)CCC=C(C)C)c(O)c1C(=O)OC
1300

Query block: # input compound: `CCCCCc1cc(O)cc(O)c1C(=O)O` ; wanted: its Cmax
Result block: 65000

====

assay: Pharmacokinetic analysis in mouse plasma and brain after i.p. injection; type: in vivo; settings: ip; brain; 10 mg/kg, i.p.; mouse; converted from ng/mg brain assuming density of 1 g/mL; read-out: Cmax
Each entry below carries its recorded Cmax.
Give the quantity in ng/mL, number only.

CCCCCc1cc(O)c(C/C=C(\C)CCC=C(C)C)c(O)c1C(=O)OC [CBGA methyl ester]
210

Query block: For CCCCCc1cc(O)cc(O)c1C(=O)O [Olivetolic acid] , what is its reported Cmax?
Result block: 450

====

assay: Pharmacokinetic analysis in mouse plasma and brain after i.p. injection; assay type: in vivo; details: mouse, plasma, ip, 10 mg/kg
measure: half-life (h)
Just the number please, in h, no unit attached.

Query block: Any idea what its half-life is? The molecule is CCCCCc1cc(O)c(C/C=C(\C)CCC=C(C)C)c(O)c1C(=O)OC [CBGA methyl ester]
Result block: 1.35

====

test: Pharmacokinetic analysis in mouse plasma and brain after i.p. injection; type: in vivo; conditions: ip; plasma; 10 mg/kg; mouse
measure: AUC (ng·h/mL)
Expressed in ng·h/mL, but write only the number.

Query block: Quick check: AUC of `CCCCCc1cc(O)c(C/C=C(\C)CCC=C(C)C)c(O)c1C(=O)OC` ?
Result block: 2850

Query block: Same question, `CCCCCc1cc(O)cc(O)c1C(=O)O` this time
Result block: 18400

====

test: Pharmacokinetic analysis in mouse plasma and brain after i.p. injection; format: in vivo; details: ip; brain; 10 mg/kg; mouse
measure: Tmax (min)
Answer format: numeric, min implied, no suffix.

CCCCCc1cc(O)cc(O)c1C(=O)O [Olivetolic acid]
15

// below: Tmax requested for another compound
Query block: Requested read-out: Tmax. Entry: CCCCCc1cc(O)c(C/C=C(\C)CCC=C(C)C)c(O)c1C(=O)OC [CBGA methyl ester]
Result block: 30
